Each recorded value in this set is attributed to patent US8216550B2.

Tested on: Firefly luciferase
Procedure summary: Luciferase assay: emission spectrum of purified luciferase with luciferin substrates
Stated conditions: substrate of purified firefly luciferase, pH 7.8, Spex Fluoromax-3
maximal emission for assorted compounds
Observation type: maximal emission (nm)

>>> quantitative_result("CCCCNc1ccc2nc(C3=N[C@@H](C(=O)O)CS3)sc2c1 [n-butylamino]")
607
>>> quantitative_result("O=C(O)[C@H]1CSC(c2nc3ccc(O)cc3s2)=N1 [D-luciferin, reference compound]")
555
>>> quantitative_result("CCNc1ccc2nc(C3=N[C@@H](C(=O)O)CS3)sc2c1 [ethylamino]")
607
>>> quantitative_result("CN(C)c1ccc2nc(C3=N[C@@H](C(=O)O)CS3)sc2c1 [dimethylamino-luciferin (1a)]")
624
>>> quantitative_result("CC(C)Nc1ccc2nc(C3=N[C@@H](C(=O)O)CS3)sc2c1 [isopropylamino]")
607
